# System: KM20L2 colon
# ASSAY_TEXT: NCI tumour cell line growth inhibition, 48 h
Quick list: TGI per entry.

- COMPOUND: "CC(C)(CN1CCCCC1)C(=O)CC(SCCN)c1ccc(Cl)cc1 (centres undefined)"
  TGI: "5.43 µM"
- COMPOUND: "O=c1c(O)cc2c(O)oc3c(=O)c(O)c(O)c4c(O)oc1c2c43"
  TGI: "> 100 µM"
- COMPOUND: "O=[N+]([O-])c1ccc(CN=C2NNS(=O)(=O)c3ccccc32)cc1"
  TGI: "> 100 µM"
- COMPOUND: "CCCCCCCC(CC(=O)NC(CO)C(=O)NC(CO)CC(C)C)OC(=O)CC(CCCCCCC)OC(=O)CC(CCCCCCC)OC1OC(C)C(O)C(OC2OC(C)C(O)C(O)C2O)C1O (centres undefined)"
  TGI: "32.1 µM"
- COMPOUND: "COc1cc(C2C(C(=O)O)=C(COC(C)=O)Oc3cc4c(cc32)OCO4)cc(OC)c1OC(C)=O (centres undefined)"
  TGI: "> 100 µM"
- COMPOUND: "COc1ccc2[nH]c3c4c(cc(-c5ccccc5)c3c2c1)C(=O)N(c1ccccc1)C4=O"
  TGI: "> 100 µM"
- COMPOUND: "CN(C)CCN(C)C(=O)C1CCCN1C(=O)OCc1ccccc1 (centres undefined)"
  TGI: "> 100 µM"
- COMPOUND: "COC1=CC(=O)c2c(cc3c(c2O)-c2c(OC)cc4cc5c(c(O)c4c2OC(=O)CC(C)(O)C3)C(=O)CC(C)(O)C5)C1=O (centres undefined)"
  TGI: "5.29 µM"
- COMPOUND: "O=C([O-])CCc1ccccc1.O=C([O-])CCc1ccccc1.O=C([O-])CCc1ccccc1.O=C([O-])CCc1ccccc1.[Mo+2].[Mo+2]"
  TGI: "> 100 µM"
- COMPOUND: "COC1=CC(=O)OC(/C=C(C)/C=C/C2=C(C)CCCC2(C)C)C1 (centres undefined)"
  TGI: "> 100 µM"
- COMPOUND: "Cn1c2cc([N+](=O)[O-])ccc2c(=O)c2c(O)cc3c(c21)C=CC(C)(C)O3"
  TGI: "> 100 µM"
- COMPOUND: "CCCCCCCCCC/C=C/C=O"
  TGI: "> 100 µM"
- COMPOUND: "CC(=O)Oc1c(Br)ccc2cc(C(Br)Br)c(C(=O)c3ccccc3)nc12"
  TGI: "42.2 µM"
- COMPOUND: "CC(=O)OCC1OC([Se-])C(OC(C)=O)C(OC(C)=O)C1OC(C)=O.N#CCC[PH+](CCC#N)CCC#N.[Au+] (centres undefined)"
  TGI: "41.1 µM"
